METHOD DESCRIPTION: NCI Yeast Anticancer Drug Screen. Data for the sgs1 strain (AID 173);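 note: 0% = growth of vehicle-only control cultures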
CONDITION PARAMETERS: S. cerevisiae sgs1 mutant, at 33.0 µM
The panel holds about 79,000 compounds, 15% with a hit somewhere; the sample as a whole holds those more often. Activity calls are given as the source filed them. Cut-off read from the data, not from the text of the source: active = growth inhibition above about 70%; inactive = the rest.
Valid outcomes are listed here; reply with one: 1 (active), -1 (inactive)

CCCCCCCCCC[Se]C#N ... -1
O=C1C=C(CN(CCCl)CCCl)C(=O)C=C1CN(CCCl)CCCl ... -1
CCN(CC)CCBr ... -1
COC(=O)C1c2cc3c(c(O)c2C(O)CC1(C)O)C(=O)c1c(O)cc2c(c1C3=O)OC1OC2(C)C(O)C(N(C)C)C1O (configuration not stated) ... 1

IN: Just curious, what result did `CCS(=O)(=O)[O][Sn]([CH2]C)([CH2]C)[O]S(=O)(=O)CC` get here?
OUT: -1

IN: Just curious, what result did `O=C(COc1ccc(Cl)cc1Cl)NO` get here?
OUT: -1
